assay: Half-life in nude mouse at 4 mg/kg, po measured for 24 hrs by LC-MS/MS analysis; assay type: ADME, organism-based; conditions: in vivo
Readout Kind: half-life
Kindly write the number and append the unit.

// "COCc1nnc(N2C[C@@H]3C[C@]3(c3ccc(F)cc3Cl)C2)n1-c1ccc(OC)nc1" : half-life value = 1.9 h

---

molecular target: Cytochrome P450 2D6 (Homo sapiens, UniProt P10635); assay: Inhibition of human recombinant CYP2D6
Sequence (P10635 whole entry): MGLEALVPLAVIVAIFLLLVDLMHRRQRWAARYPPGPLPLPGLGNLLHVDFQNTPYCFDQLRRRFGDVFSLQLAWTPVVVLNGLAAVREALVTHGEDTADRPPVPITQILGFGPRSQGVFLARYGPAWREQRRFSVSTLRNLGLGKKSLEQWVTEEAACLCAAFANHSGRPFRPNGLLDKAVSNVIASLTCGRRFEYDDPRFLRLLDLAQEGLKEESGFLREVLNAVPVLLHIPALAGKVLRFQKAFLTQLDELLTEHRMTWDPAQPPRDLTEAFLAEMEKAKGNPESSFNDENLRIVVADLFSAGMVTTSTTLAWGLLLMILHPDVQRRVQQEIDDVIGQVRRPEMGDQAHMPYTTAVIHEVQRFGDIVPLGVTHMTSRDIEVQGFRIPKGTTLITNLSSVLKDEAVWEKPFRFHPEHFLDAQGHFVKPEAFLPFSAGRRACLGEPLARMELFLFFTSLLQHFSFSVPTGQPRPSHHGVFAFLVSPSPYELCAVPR
Readout Kind: IC50

// "COCc1nnc(N2C[C@@H]3C[C@]3(c3ccc(F)cc3Cl)C2)n1-c1ccc(OC)nc1" : IC50 value = > 30 µM

---

target: UniProt:P08684; assay: Inhibition of human recombinant CYP3A4 using testosterone as substrate; type: ADME
Sequence (P08684 whole entry): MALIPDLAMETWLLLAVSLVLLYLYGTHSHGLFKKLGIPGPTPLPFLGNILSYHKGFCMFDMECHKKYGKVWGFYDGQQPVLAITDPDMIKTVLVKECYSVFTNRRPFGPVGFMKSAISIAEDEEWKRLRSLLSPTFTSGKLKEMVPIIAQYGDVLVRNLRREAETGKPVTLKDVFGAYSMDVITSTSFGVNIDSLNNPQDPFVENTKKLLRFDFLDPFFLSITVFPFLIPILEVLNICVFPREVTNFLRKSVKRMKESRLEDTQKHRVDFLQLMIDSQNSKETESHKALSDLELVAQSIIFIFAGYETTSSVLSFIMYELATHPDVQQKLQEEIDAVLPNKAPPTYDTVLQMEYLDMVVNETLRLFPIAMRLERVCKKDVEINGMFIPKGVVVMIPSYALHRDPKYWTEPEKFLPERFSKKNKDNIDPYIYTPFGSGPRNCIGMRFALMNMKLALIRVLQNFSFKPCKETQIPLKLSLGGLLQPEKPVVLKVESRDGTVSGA
Readout Kind: pIC50
Numbers only, as −log10 of the molar value.

// "COCc1nnc(N2C[C@@H]3C[C@]3(c3ccc(F)cc3Cl)C2)n1-c1ccc(OC)nc1" : pIC50 value = 4.70
